Field: Ratio IC50. Provide a value for each of the compounds that follow.
Assay: Resistance index, ratio of IC50 for human HL60/MX2 cells to IC50 for human HL60 cells
Type: functional
Please give the numeric answer without any surrounding text.

Consider the compound O=C1c2c(O)ccc(O)c2C(=O)c2c(NCCNCCO)ccc(NCCNCCO)c21 and give its measured Ratio IC50.
37

Consider the compound CCOP(=O)(CCCCCCN=C=S)OCC and give its measured Ratio IC50.
7.8

Consider the compound CC(C)OP(=O)(CCCCCCN=C=S)OC(C)C and give its measured Ratio IC50.
1.4

Consider the compound O=P(CCCCCCN=C=S)(Oc1ccccc1)Oc1ccccc1 and give its measured Ratio IC50.
4.3

---

System: 4T1
Assay: Cytotoxicity against mouse 4T1 cells after 72 hrs by sulforhodamine B assay
Assay type: functional, cell-based
Details: 4T1, 72 h
Field: pIC50. Provide a value for each of the compounds that follow.
In plain terms, pIC50 is the concentration in mol/L turned into minus its base-10 logarithm.

Consider the compound CC(C)OP(=O)(CCCCCCN=C=S)OC(C)C and give its measured pIC50.
5.60

Consider the compound CCOP(=O)(CCCCCCN=C=S)OCC and give its measured pIC50.
5.51

Consider the compound O=P(CCCCCCN=C=S)(Oc1ccccc1)Oc1ccccc1 and give its measured pIC50.
5.54
